# experimental_system: Angiotensin II receptor (Rattus norvegicus, UniProt P29089+P25095+P35351)
# assay_explanation: Antagonistic activity (pA2) was determined as the negative logarithm of the concentration required to reduce the response to an EC50 dose of ANG II to the response to half the EC50.
# Type: functional
metric: pA2

CC[C@H](C)[C@H](NC(=O)[C@@H]1CCN1C(=O)[C@H](Cc1c[nH]cn1)NC(=O)[C@@H](NC(=O)[C@H](Cc1ccc(O)cc1)NC(=O)[C@@H](NC(=O)[C@H](CCCN=C(N)N)NC(=O)CNC)C(C)C)[C@@H](C)CC)C(=O)O: 7.9
CC[C@H](C)[C@H](NC(=O)[C@@H]1CCCCN1C(=O)[C@H](Cc1c[nH]cn1)NC(=O)[C@@H](NC(=O)[C@H](Cc1ccc(O)cc1)NC(=O)[C@@H](NC(=O)[C@H](CCCN=C(N)N)NC(=O)C(C)(C)N)C(C)C)[C@@H](C)CC)C(=O)O: 7.6

Measured values drawn from ChEMBL document CHEMBL1126631 for this set.
